system: HCT116; test: efficacy (fitted maximal change in viability relative to DMSO control); higher = less cytotoxic (negative = loss of viability); settings: 48 h;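 further: Luminescence-based viability readout, five doses per compound, normalized against on-plate DMSO and empty-well controls, followed by dose-response curve fitting for every drug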
Classification field: enter TRUE for efficacy values not below -10%, FALSE for values below it.

# example entries with known answers
INSERT INTO assay_data (compound, group_label) VALUES
  ('CCOC(=O)C(C#N)C\1C2=CC(=CC=C2O\C(=C1C(=O)OCC)N)Br (stereo not given)', 'TRUE'),
  ('Nc1ncnc2ccccc12', 'FALSE'),
  ('COc1cc2c(NC3CCN(C4CCCCC4)CC3)nc(N3CCCN(C(C)C)CC3)nc2cc1OCCCN1CCCCC1', 'FALSE');

Query: Does the compound O=C(NC[C@H](O)CO)c1ccncc1Nc1ccc(I)cc1F have recorded efficacy that is -10% or more?
Result: FALSE

Query: Reported efficacy at or above -10%? Cc1ccc(-n2nc(C(C)(C)C)cc2NC(=O)Nc2ccc(OCCN3CCOCC3)c3ccccc23)cc1
Result: FALSE
